molecular target: Kv1.5 channels from humans (Homo sapiens, UniProt P22460); construct: expressed in transfected cells; host or cells: Xenopus laevis oocytes injected with in vitro synthesized RNA; assay: Kv1.5 currents in Xenopus oocytes, two-microelectrode voltage clamp; assay type: cell-based
Sequence (P22460 whole entry): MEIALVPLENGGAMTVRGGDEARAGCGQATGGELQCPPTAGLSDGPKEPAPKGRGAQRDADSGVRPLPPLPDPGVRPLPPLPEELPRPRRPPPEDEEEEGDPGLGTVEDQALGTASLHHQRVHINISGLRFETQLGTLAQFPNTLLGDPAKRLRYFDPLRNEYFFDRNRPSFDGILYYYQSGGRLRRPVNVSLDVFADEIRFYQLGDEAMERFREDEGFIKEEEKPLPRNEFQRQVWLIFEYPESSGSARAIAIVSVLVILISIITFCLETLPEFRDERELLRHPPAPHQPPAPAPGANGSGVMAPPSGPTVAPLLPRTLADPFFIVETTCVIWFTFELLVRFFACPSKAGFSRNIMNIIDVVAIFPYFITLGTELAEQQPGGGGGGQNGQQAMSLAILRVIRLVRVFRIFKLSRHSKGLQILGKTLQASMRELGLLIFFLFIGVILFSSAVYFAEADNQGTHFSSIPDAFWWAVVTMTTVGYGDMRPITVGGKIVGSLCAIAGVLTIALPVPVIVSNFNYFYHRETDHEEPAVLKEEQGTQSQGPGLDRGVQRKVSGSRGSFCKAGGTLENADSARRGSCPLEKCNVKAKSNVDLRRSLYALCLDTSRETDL
IC50 overview

Worked cases, IC50 given:
{"compound": "COCCCNC(=O)c1ccccc1-c1ccccc1CNC(=O)OCc1ccccc1 [18 aa]", "endpoint": "IC50", "testResult": "0.4 µM"}
{"compound": "O=C(NCc1ccccc1-c1ccccc1C(=O)NCCc1ccccn1)Nc1ccc(F)cc1F [11 b]", "endpoint": "IC50", "testResult": "7.3 µM"}
{"compound": "O=C(NCc1ccccc1-c1ccccc1C(=O)NCC(F)(F)F)OCc1ccccc1 [6 h]", "endpoint": "IC50", "testResult": "3 µM"}
{"compound": "CN(Cc1ccccc1)C(=O)c1ccccc1-c1ccccc1CNC(=O)OCc1ccccc1 [6 a]", "endpoint": "IC50", "testResult": "4.4 µM"}
{"compound": "O=C(NCCc1ccccn1)c1ccccc1-c1ccccc1CNS(=O)(=O)c1cccc(F)c1 [3 r]", "endpoint": "IC50", "testResult": "1.5 µM"}

Ask: Identify measured IC50 associated with CC(OC(=O)NCc1ccccc1-c1ccccc1C(=O)NCCc1ccccn1)c1ccc(C(F)(F)F)cc1 (racemic) [1 f]
Reply: 0.4 µM

Ask: Identify measured IC50 associated with COC(=O)C(Cc1ccccn1)NC(=O)c1ccccc1-c1ccccc1CNC(=O)OC(C)(C)C (stereo not drawn) [8 n]
Reply: 3.7 µM

Ask: Identify measured IC50 associated with CC(C)NC(=O)CNC(=O)c1ccccc1-c1ccccc1CNC(=O)OCc1ccccc1 [8 y]
Reply: 2.8 µM

Ask: Identify measured IC50 associated with CC(C)CCNC(=O)c1cc(O)ccc1-c1ccccc1CNC(=O)OCc1ccccc1 [16 b]
Reply: 5.2 µM

###

target: Kv1.5 channels from humans (Homo sapiens, UniProt P22460); construct: expressed in transfected cells; host or cells: Xenopus laevis oocytes injected with in vitro synthesized RNA; assay: Kv1.5 currents in Xenopus oocytes, two-microelectrode voltage clamp; format: cell-based
endpoint: IC50 (nM)
Lab book: enter the figure in nM, no units written.

{"molecule": "O=C(NCc1ccccc1)NCc1ccccc1-c1ccccc1C(=O)NCCc1ccccn1 [5 c]", "IC50, nM": 7800}
{"molecule": "O=C(NCc1ccccc1-c1ccccc1C(=O)NCc1ccccn1)OCc1ccccc1 [1 u]", "IC50, nM": 800}
{"molecule": "O=C(NCc1ccccc1-c1ccccc1C(=O)NCc1nc2ccccc2[nH]1)OCc1ccccc1 [18 ah]", "IC50, nM": 2100}

Ask: Look up Kv1.5 channels from humans (Homo sapiens, UniProt P22460) data: IC50 of O=C(CCc1ccc(F)cc1)NCc1ccccc1-c1ccccc1C(=O)NCc1ccc(F)cc1F [14 b] , then report it.
Reply: 2700

Ask: Look up Kv1.5 channels from humans (Homo sapiens, UniProt P22460) data: IC50 of COc1ccc(CC(=O)NCc2ccccc2-c2ccccc2C(=O)NCCCOC(C)C)cc1 [18 y] , then report it.
Reply: 1900

###

target: Kv1.5 channels from humans (Homo sapiens); construct: expressed in transfected cells; host or cells: Xenopus laevis oocytes injected with in vitro synthesized RNA; experiment: Kv1.5 currents in Xenopus oocytes, two-microelectrode voltage clamp; format: cell-based
pIC50: −log10 of the molar value.
Note to self: values exactly at 6 are rule met. So pIC50 at or above 6 is rule met, below is rule not met.

// known answers, use as guide
{"chemicalString": "C[C@H](NC(=O)NCc1ccccc1-c1ccccc1C(=O)NCCc1ccccn1)c1ccccc1", "testedTarget": "Kv1.5 channels from humans (Homo sapiens)", "group": "rule not met"}
{"chemicalString": "CCCCOC(=O)NCc1ccccc1-c1ccccc1C(=O)NCCC(C)C", "testedTarget": "Kv1.5 channels from humans (Homo sapiens)", "group": "rule not met"}
{"chemicalString": "O=C(NCc1ccccc1-c1ccccc1C(=O)NCCc1ccccc1)OCc1ccccc1", "testedTarget": "Kv1.5 channels from humans (Homo sapiens)", "group": "rule not met"}
{"chemicalString": "CC(C)C[C@H](NC(=O)c1ccccc1-c1ccccc1CNC(=O)OCc1ccccc1)C(=O)NCC(F)(F)F", "testedTarget": "Kv1.5 channels from humans (Homo sapiens)", "group": "rule met"}
{"chemicalString": "CC(C)CCNC(=O)c1ccccc1-c1ccccc1CNC(=O)OCC1CC1", "testedTarget": "Kv1.5 channels from humans (Homo sapiens)", "group": "rule not met"}

Ask: Would you say CC(C)CCNC(=O)c1ccccc1-c1ccccc1CNC(=O)COc1ccccc1 shows pIC50 at minimum 6?
Reply: rule not met

Ask: Would you say CC(C)CCNC(=O)c1ccccc1-c1ccccc1CNC(=O)C[C@@H](C)c1ccccc1 shows pIC50 at minimum 6?
Reply: rule met

###

molecular target: Kv1.5 channels from humans (Homo sapiens); construct: expressed in transfected cells; host or cells: Xenopus laevis oocytes injected with in vitro synthesized RNA; experiment: Kv1.5 currents in Xenopus oocytes, two-microelectrode voltage clamp; type: cell-based
# note: exactly 3000 nM is not below, so it is NOT MET; use MET for IC50 strictly under it

// known answers, use as guide
{"molecule": "O=C(NCc1ccccc1-c1ccccc1C(=O)Nc1ccccc1)OCc1ccccc1", "group": "MET"}
{"molecule": "O=C(NCCc1ccccc1)c1ccccc1-c1ccccc1CNS(=O)(=O)c1ccccc1", "group": "MET"}
{"molecule": "C[C@H](CC(=O)NCc1ccccc1-c1ccccc1C(=O)NCCc1ccncc1)c1ccccc1", "group": "MET"}
{"molecule": "COc1ccc(CC(=O)NCc2ccccc2-c2ccccc2C(=O)NCCc2ccccn2)cc1", "group": "MET"}
{"molecule": "O=C(NCc1ccccc1-c1ccccc1C(=O)NCc1ccc(F)cc1F)OCCCC(F)(F)F", "group": "MET"}

Ask: Please check: IC50 for CCC[C@H](OC(=O)NCc1ccccc1-c1ccccc1C(=O)NCCc1ccccn1)c1ccccc1 , strictly under 3000 nM or not?
Reply: MET

Ask: Please check: IC50 for C[C@H](OC(=O)NCc1ccccc1-c1ccccc1C(=O)NCCc1ccccn1)c1ccc(C(F)(F)F)cc1 , strictly under 3000 nM or not?
Reply: MET

Ask: Please check: IC50 for CC(C)(C)OC(=O)NCc1ccccc1-c1ccccc1C(=O)NCCc1ccccn1 , strictly under 3000 nM or not?
Reply: NOT MET

Ask: Please check: IC50 for O=C(NCc1ccccc1-c1ccccc1C(=O)NCc1cccnc1)OCCc1ccccc1 , strictly under 3000 nM or not?
Reply: NOT MET

###

log10 IC50 overview
target: Kv1.5 channels from humans (Homo sapiens); construct: expressed in transfected cells; host or cells: Xenopus laevis oocytes injected with in vitro synthesized RNA; test: Kv1.5 currents in Xenopus oocytes, two-microelectrode voltage clamp; format: cell-based
Parameter value (number): base-10 log of IC50 in µM.

Worked cases, log10 IC50 given:
{"compound": "O=C(NCc1ccccc1-c1ccccc1C(=O)NCCc1ccccn1)Nc1cccc(C(F)(F)F)c1", "log10 IC50": 0.64}
{"compound": "COc1ccc(-c2ccccc2CNC(=O)OC(C)(C)C)c(C(=O)NCCC(C)C)c1", "log10 IC50": 0.49}
{"compound": "O=C(NCc1ccccc1-c1ccccc1C(=O)NCCc1ccccn1)Nc1ccc(C(F)(F)F)cc1", "log10 IC50": 0.52}

Ask: Look up Kv1.5 channels from humans (Homo sapiens) data: log10 IC50 of C[C@H](CC(=O)NCc1ccccc1-c1ccccc1C(=O)NCc1ccncc1)c1ccccc1 , then report it.
Reply: 0.11

Ask: Look up Kv1.5 channels from humans (Homo sapiens) data: log10 IC50 of CC(CC(=O)NCc1ccccc1-c1ccccc1C(=O)NCCc1ccccn1)c1ccccc1 (stereo not drawn) , then report it.
Reply: -0.10

Ask: Look up Kv1.5 channels from humans (Homo sapiens) data: log10 IC50 of CC[C@@H](C)OC(=O)NCc1ccccc1-c1ccccc1C(=O)NCc1cccc(C)n1 , then report it.
Reply: 1.00

Ask: Look up Kv1.5 channels from humans (Homo sapiens) data: log10 IC50 of CC(C)(C)OC(=O)NCc1ccccc1-c1ccccc1C(=O)Nc1ccc(F)cc1 , then report it.
Reply: 0.49

Ask: Look up Kv1.5 channels from humans (Homo sapiens) data: log10 IC50 of COC(=O)C(CC(C)C)NC(=O)c1ccccc1-c1ccccc1CNC(=O)OCc1ccccc1 (stereo not drawn) , then report it.
Reply: 0.00

Ask: Look up Kv1.5 channels from humans (Homo sapiens) data: log10 IC50 of COc1ccc(NC(=O)c2ccccc2-c2ccccc2CNC(=O)CCc2ccccc2)cc1 , then report it.
Reply: 0.26

###

IC50 overview
molecular target: Kv1.5 channels from humans (Homo sapiens, UniProt P22460); construct: expressed in transfected cells; host or cells: Xenopus laevis oocytes injected with in vitro synthesized RNA; test: Kv1.5 currents in Xenopus oocytes, two-microelectrode voltage clamp; format: cell-based
Lab book: enter the figure in µM, no units written.

{"chemicalString": "O=C(Cc1ccc(O)cc1)NCc1ccccc1-c1ccccc1C(=O)NCc1ccc(F)cc1F", "testResult": 5.4}
{"chemicalString": "Cc1ccccc1CCC(=O)NCc1ccccc1-c1ccccc1C(=O)NCc1ccc(F)cc1F", "testResult": 3.6}
{"chemicalString": "O=C(NCc1ccccc1-c1ccccc1C(=O)NCc1ccccn1)Nc1ccc(F)cc1F", "testResult": 5.9}

Ask: Identify measured IC50 associated with Cc1cccc(S(=O)(=O)NCc2ccccc2-c2ccccc2C(=O)N[C@@H](Cc2ccccc2)C(N)=O)c1
Reply: 11.3
